Numbers sourced from PubChem BioAssay.

Experiment: growth suppression of yeast trafficking mutant, preliminary HTS, modulators of trafficking downstream of Golgi apparatus project, 1536-format plate, OD 615 nm (AID 637)
Conditions: yeast transport mutant growth, absorbance 615 nm, 18 h; active compounds read high
Active and inactive are the calls of the source. Rule as the data show it: active = inhibition above about 30%; inactive = the rest.
Listing of recorded inhibition by entry.
property: inhibition

In [3]: df
Out[3]:
                                    compound  experimental_result
 0  CCOC(=O)c1sc(NS(=O)(=O)c2ccc(NC(C)=O)cc2)nc1C     2.22% (inactive)
 1   Fc1c(F)c(F)c(CSc2nc3ccccc3[nH]2)c(F)c1F     3.02% (inactive)
 2  C1=CC2CC1CC2CN1CCN(c2ccccc2)CC1 (stereo unspecified)    -1.27% (inactive)
 3      CCOC(=O)c1sc2nc3c(cc2c1N)COC(C)(C)C3    -3.23% (inactive)
 4  CCN1C(=O)C(C(=O)Nc2ccc(OC)cc2)C2CC1(C)Oc1ccccc12 (stereo unspecified)    -1.64% (inactive)
 5  COc1ccc(OC)c(NC(=O)C23CCC(C)(C(=O)C2)C3(C)C)c1 (stereo unspecified)    -2.73% (inactive)
 6  CCN1C(=O)CC(N2CCC(Nc3ccc(F)cc3)CC2)C1=O (stereo unspecified)    -0.98% (inactive)
 7  COc1cc(NC(=O)Nc2cccc(Cl)c2)c(OC)cc1NC(=O)CN1CCCCC1    -0.95% (inactive)
 8   COc1ccc(OCCOC(=O)c2cccc(-n3cnnn3)c2)cc1     1.64% (inactive)
 9  Cc1cccc(-n2c(=O)cc(N3CCN(c4ccc(F)cc4)CC3)[nH]c2=O)c1    -2.33% (inactive)
10  CCOC(=O)c1oc2ccccc2c1NC(=O)c1cccc(OC)c1OC    -2.22% (inactive)
11      Cc1sc2ncnc(Oc3ccc(-n4ccnc4)cc3)c2c1C     3.27% (inactive)
12           COc1ccccc1C(=O)NCCNC(=O)c1ccco1     0.48% (inactive)
13  CN(C)C(CNC(=O)Nc1cccc(Cl)c1)c1cccnc1 (stereo unspecified)     2.18% (inactive)
14  COc1ccccc1C(=O)N1CCN(C(=O)COc2cccc(C)c2)CC1    -0.73% (inactive)
15  CCCCC(=O)O[C@H]1CC[C@H]2[C@@H]3CCc4cc(O)ccc4[C@H]3CC[C@]12C     8.33% (inactive)
16              NC(=O)C1CCN(C(=S)c2cccs2)CC1     3.39% (inactive)
17       CCS(=O)(=O)N1CCC(C(=O)NCc2cccs2)CC1    -3.02% (inactive)
18  O=c1/c(=C/c2ccco2)sc2nc(-c3ccccc3Br)nn12     1.64% (inactive)
19              CCc1n[nH]c2c1C(=O)CC(C)(C)C2        6% (inactive)
20  COc1cc(NC(=O)Nc2cccc(C(C)=O)c2)cc(OC)c1OC    -0.18% (inactive)
21  CN1CCN(C(=O)c2ccccc2N(Cc2ccccc2)S(C)(=O)=O)CC1    -6.35% (inactive)
22            CCCc1cc(=O)[nH]c(SCc2ccccc2)n1    -2.46% (inactive)
23                   NC(N)=NC(N)=NCCc1ccccc1    -0.67% (inactive)
24  COC(=O)CSC1=C(C#N)C(c2ccccc2)CC(=O)N1 (stereo unspecified)     6.19% (inactive)
25                Nc1cc(C(=O)O)ccc1Nc1ccccc1     2.38% (inactive)
26  COc1ccc(C(c2nnnn2C2CCCC2)N2CCC(C)CC2)c(OC)c1 (stereo unspecified)    -3.28% (inactive)
27              COc1cc(C(N)=O)ccc1OCc1ccccc1    -7.14% (inactive)
28  O=C(CNCC1CCCO1)Nc1ccccc1-n1cccc1 (stereo unspecified)    -2.36% (inactive)
29  CCOC(=O)c1cnn(-c2sc(C(=O)OCC)c(C)c2C(=O)OCC)c1N     -4.6% (inactive)
30   O=C1c2ccccc2C(=O)N1CCC(=O)N1CCc2ccccc21     5.08% (inactive)
31  CN1CCc2c(sc3c2c(=O)n(-c2ccccc2)c2nnc(SCc4ccc(F)cc4)n32)C1     0.79% (inactive)
32            Cc1cc(NC(=O)Cc2c(F)cccc2Cl)no1     3.64% (inactive)
33  CCC(=O)c1ccc(OCC(=O)N2CCc3cc(OC)c(OC)cc3C2)cc1     -4.6% (inactive)
34  O=C(O)C1CSC2c3ccccc3C(=O)N12 (stereo unspecified)     3.81% (inactive)
35  O=C(NCCC1=CCCCC1)C1CCN(S(=O)(=O)c2cnc[nH]2)CC1    -1.27% (inactive)
36  O=C(Nc1sc2c(c1C(=O)NCc1ccco1)CCCC2)c1ccc2c(c1)OCO2    -6.35% (inactive)
37   CCOc1ccc(S(=O)(=O)Nc2ccc(Cl)cn2)c(C)c1C     4.43% (inactive)
38  CCOC(=O)c1[nH]c(CSc2nnc(-c3ccc(OC)cc3)o2)c(C(=O)OCC)c1C    -4.36% (inactive)
39  COc1ccc(CCN2C(=O)C3C4C=CC(C4)C3C2=O)cc1OC (stereo unspecified)    -4.44% (inactive)
40       C/C(=N\O)C(=O)C(CN1CCCCC1)CN1CCCCC1       -7% (inactive)
41  CCOC(=O)N1CCN(C(=O)c2cn(CC)c3cc(N4CCN(C)CC4)c(F)cc3c2=O)CC1     7.74% (inactive)
42  Cc1ccc2nc(-c3ccccn3)cc(C(=O)N3CCN(c4ncccn4)CC3)c2c1     0.91% (inactive)
43  CCOC(=O)c1[nH]c(C)c(C(=O)Nc2cc(OC)ccc2OC)c1C    -4.92% (inactive)
44  Cc1c(NS(=O)(=O)c2ccc3c(c2)n(C)c(=O)n3C)c(=O)n(-c2ccccc2)n1C    -0.98% (inactive)
45  CCOC(=O)N1CCC(NC(=O)c2ccc3nc(N4CCOCC4)sc3c2)CC1    -0.32% (inactive)

====

# maps each entry to its inhibition
Assay: 384-well plate pilot, post-Golgi transport modulator project, inhibition of yeast transport mutant growth (AID 636)
Details: absorbance 615 nm, about 18 h, active compounds read high
Activity calls are given as the source filed them. Cut-off read from the data, not from the text of the source: active = inhibition above about 31%; inactive = the rest.
property: inhibition

In [3]: df
Out[3]:
                                    compound    property  experimental_result
 0  O=C(Nc1ccc(F)cc1)N(Cc1ccco1)Cc1cc2cc3c(cc2[nH]c1=O)OCO3  inhibition    -6.32% (inactive)
 1  Nc1nonc1C(=O)NCCNCc1cc(Br)ccc1OCc1ccccc1F  inhibition    -5.87% (inactive)
 2      COC(=O)CN(Cc1ccco1)S(=O)(=O)c1ccccc1  inhibition    -2.67% (inactive)
 3  CCOC(=O)c1c(NC(=O)COC(=O)c2c(C)noc2C)sc2c1CCC2  inhibition    -8.36% (inactive)
 4  COc1cccc2cc(C(=O)N3CCc4ccccc43)c(=O)oc12  inhibition    -3.03% (inactive)
 5             c1ccc(-c2noc(-c3cccnc3)n2)nc1  inhibition    -3.77% (inactive)
 6  COc1ccccc1NC(=O)N(Cc1ccco1)Cc1cc2c(C)ccc(C)c2[nH]c1=O  inhibition    -2.88% (inactive)
 7                     Cc1ccc(CCSCC(=O)O)cn1  inhibition     -2.4% (inactive)
 8  CC(OC(=O)CNC(=O)C12CC3CC(CC(C3)C1)C2)C(=O)Nc1ccc(N2CCOCC2)cc1 (stereo unspecified)  inhibition    -0.68% (inactive)
 9  CCOC(=O)N1CCC(NC(=O)c2ccc3c(c2)sc2nc(-c4cccc(OC)c4)cn23)CC1  inhibition    -1.95% (inactive)
10  Cc1cnc(NC(=O)C2=C(O)c3ccccc3S(=O)(=O)N2C)s1  inhibition     3.51% (inactive)

====

Experiment: 384-well plate pilot, post-Golgi transport modulator project, inhibition of yeast transport mutant growth (AID 636)
Settings: absorbance 615 nm, about 18 h, active compounds read high
Recorded inhibition by entry
property: inhibition (%)

>>> df
                                    molecule  experimental_result
 0  CS(=O)(=O)N(CC(=O)NCCSCc1cccc(Cl)c1)c1ccc2c(c1)OCO2                -2.21
 1             Cc1cc(C(=O)N2CCCc3ccccc32)no1                -2.27
 2           CCCN(CCC)c1nc2ccccc2n2c(C)nnc12                -1.45
 3          OC(CCN1CCCCC1)(c1ccccc1)c1ccccc1                -2.21
 4  Cc1ccc(S(=O)(=O)N2CCN(c3nc(C)nc4sc(C)c(C)c34)CC2)cc1                -3.73
 5  CC(Sc1nnc(-c2cc3ccccc3o2)n1-c1ccccc1)C(=O)O (stereo unspecified)                -5.84
 6      Cc1ccc2c(C(=O)CN3CCSCC3)c(C)[nH]c2c1                -3.07
 7      Cc1cccc(-n2ncc3c(NCc4cccs4)ncnc32)c1                 26.2
 8    CC(=O)c1ccccc1OCCn1nnc(-c2ccc(C)cc2)n1                 -8.9
 9            COc1cc(OC)cc(-c2nc(N)n[nH]2)c1                 -6.4
10  CC(=O)[C@H]1CC[C@H]2[C@@H]3CCC4=CC(=O)CC[C@]4(C)[C@H]3[C@H](O)C[C@]12C                 2.08
